- Experiment notes: Hydrate screen: solubility in EtOH/water mixtures with different water activities
- Format: physicochemical
- Condition label: EtOH/water solvent mixture, organic solvent or mixture, thermodynamic from solid, EtOH/water, water activity 0.2 (water 0.031 mL, EtOH 0.969 mL), slurry at room temperature
Measured metric: Solubility

**Q:** Request the reported Solubility associated with `Cc1cc(F)c(C(=O)O)cc1-n1cnc(C2CC2)c1`
**A:** 7.27 mg/mL

====

- Experiment notes: Hydrate screen: solubility in EtOH/water mixtures with different water activities
- Assay type: physicochemical
- Condition label: EtOH/water solvent mixture, organic solvent or mixture, thermodynamic from solid, EtOH/water, water activity 0.6 (water 0.149 mL, EtOH 0.851 mL), slurry at room temperature
Measured metric: Solubility (µg/mL)
Write the value in µg/mL as a bare number.

**Q:** Need Solubility of `Cc1cc(F)c(C(=O)O)cc1-n1cnc(C2CC2)c1` , thanks.
**A:** 6590

====

- Experiment notes: Hydrate screen: solubility in EtOH/water mixtures with different water activities
- Type: physicochemical
- Condition label: EtOH/water solvent mixture, organic solvent or mixture, thermodynamic from solid, EtOH/water, water activity 0.7 (water 0.263 mL, EtOH 0.737 mL), slurry at room temperature
- Protocol: A hydrate screen of Compound of Formula (D) was performed using a mixture of anhydrous forms of Compound of Formula (D) Form II and of Compound of Formula (D) Form I and EtOH/water solvent mixtures with different water activities (Table 1). Compound of Formula (D) Form II and Compound of Formula (D) Form I (about 20 to about 40 mg) was slurried in about 1 mL of EtOH/water or water. Samples were analyzed after about 1 day and after about 2 weeks of equilibration at room temperature. […]
Measured metric: Solubility (µg/mL)
Entry rule: numbers only, all in µg/mL.

**Q:** Which Solubility value is on record for `Cc1cc(F)c(C(=O)O)cc1-n1cnc(C2CC2)c1` ?
**A:** 6880

====

- Experiment notes: Hydrate screen: solubility in EtOH/water mixtures with different water activities
- Assay type: physicochemical
- Condition label: EtOH/water solvent mixture, aqueous with cosolvent or surfactant or cyclodextrin, thermodynamic from solid, EtOH/water, water activity 0.9 (water 0.825 mL, EtOH 0.175 mL), slurry at room temperature
Measured metric: Solubility (µg/mL)
State just the number; it will be interpreted in µg/mL.

**Q:** Item under review: `Cc1cc(F)c(C(=O)O)cc1-n1cnc(C2CC2)c1` . Reported Solubility?
**A:** 3930

====

- Experiment notes: Hydrate screen: solubility in EtOH/water mixtures with different water activities
- Type: physicochemical
- Condition label: water, thermodynamic from solid, water activity 1.0 (water 1.0 mL, EtOH 0), slurry at room temperature
Measured metric: Solubility (µg/mL)
Give just the numeric value; µg/mL need not be written.

**Q:** Entry under review: `Cc1cc(F)c(C(=O)O)cc1-n1cnc(C2CC2)c1` . Reported Solubility?
**A:** 3320
